B1: LOXL2 (parent)
chain: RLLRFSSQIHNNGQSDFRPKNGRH

# Variants of: B1
# assayNotes: protein stability index of a GFP-peptide fusion (GPS, HEK-293T) (PSI 1-6); higher = more stable;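 further: lentivirally expressed fusions sorted by FACS into six bins by GFP to DsRed ratio, PSI derived from sequencing read proportions per bin multiplied by bin number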
# measurementConditions: c terminus: a fixed tail appended
Reported protein stability index values for the following variants.
reportedMetric: protein stability index

>>> measuredvalue("S6L")
2.45
>>> measuredvalue("L2S")
4.59
>>> measuredvalue("F5Q")
3.6
>>> measuredvalue("S15D")
3.06
>>> measuredvalue("G22D")
2.94
>>> measuredvalue("I9A")
2.81
>>> measuredvalue("D16Y")
2.06
>>> measuredvalue("R4W")
2.15
>>> measuredvalue("L2Q")
4.12
>>> measuredvalue("H10S")
2.71
>>> measuredvalue("H10T")
2.89
